Below, each entry is listed with its recorded TGI.
# System: COLO 205 colon
# assay-protocol: NCI tumour cell line growth inhibition, 48 h

compound | TGI
O=C(O)C(CP(=O)(O)O)=C(Cl)Cl | > 100 µM
COc1cc2cc(C(=O)N3CC(CCl)c4c3cc([N+](=O)[O-])c3ccccc43)[nH]c2c(OC)c1OC (centres undefined) | > 100 µM
CC(=O)OC(/C=C1/C=CC(=O)O1)COC(=O)c1ccccc1 (centres undefined) | > 31.2 µM
S=C1SC(=Nc2ccccc2)C(=Nc2ccccc2)N1c1ccccc1 | > 100 µM
COc1cc(NS(C)(=O)=O)ccc1Nc1c2ccc(Cl)cc2nc2c(OC)cccc12 | 2.35 µM

Any idea what TGI was measured for `CCC[CH2][Sn]1([CH2]CCC)[O]C(=O)c2cc(I)cc(I)c2[O]1` ? 1.97 µM

COC1=C2CC(C)CC(OC)[C@@H](OC(=O)CCN)[C@H](C)/C=C(\C)C(OC(N)=O)C(OC)/C=C\C=C(/C)C(=O)NC(=CC1=O)C2=O (some centres undefined) , same question. 0.964 µM

`COc1cc(/C=C2\[C@H]3c4c(c(OC)c(C)c(OC)c4OC)C[C@@H](C(=O)N2Cc2ccccc2)N3C(=O)OCC(C)C)c(OC)c(C)c1OC` , same question. > 100 µM

Cc1c(Cl)ccc2c1NC(=O)C2(O)C(C(=O)c1ccccc1)c1ccccc1 (centres undefined) , same question. > 100 µM

* * *

# System: HT29 colon
# assay-protocol: NCI tumour cell line growth inhibition, 48 h; in the data active = GI50 below about 0.43 µM; inactive = the rest
# valid calls are Y for active, N for inactive; nothing else

Some solved cases for reference:
compound | group-label
Cc1nn(-c2nc3ccccc3s2)c(C)c1Oc1ccccc1O | N
N#C/C(=C\c1ccc(-c2ccc(Cl)cc2)o1)C(=O)Nc1ncc(Cc2ccc(Cl)cc2)s1 | N
COc1cc(NS(C)(=O)=O)ccc1Nc1c2ccc(Cl)cc2nc2c(OC)cccc12 | Y

Tell me the recorded outcome of this test for CC(=O)N1N=C2/C(=C/c3ccccc3)CC(C)CC2C1c1ccccc1 (stereo not drawn) . N

`CCCN(CCC)C(=O)C1=Cc2ccc(-c3ccc(C(=O)N4CCCC4)cc3)cc2N=C(N)C1` , same question. N

`O=c1cc(-c2cccc(C(F)(F)F)c2)[nH]c2cc3c(cc12)OCO3` , same question. N

`O=C(CN1CCN(c2ncnc3ccccc23)CC1)Nc1ccc(Cl)cc1C(=O)c1ccccc1Cl` , same question. Y

`C1=Cc2ccccc2Nc2ccccc21` , same question. N

`CCOc1cccc(/C=N/NC(=O)c2ccc(Nc3ccnc(C(F)(F)F)c3)cc2)c1O` , same question. N

`O=C(Nc1ccccc1O)c1cccc(NC2=C(Cl)C(=O)N(Cc3ccccc3)C2=O)c1` , same question. N

`COc1ccc2c(c1)C(=O)/C(=C/c1cccc(OCC(=O)Nc3nc4c(s3)CCCC4)c1)O2` , same question. N

`COc1cc(C(=O)c2ccc3c(c2)OCO3)cc(OC)c1OC` , same question. N

`Cn1cc(-c2nc(-c3c[nH]c4ncccc34)cs2)c2cc(F)ccc21` , same question. N

* * *

Below, each entry is listed with its recorded TGI.
# System: HCC-2998 colon
# assay-protocol: NCI tumour cell line growth inhibition, 48 h

Solved cases (3 shown):
compound | TGI
S=C1SC(=Nc2ccccc2)C(=Nc2ccccc2)N1c1ccccc1 | > 100 µM
CC1(C)COC(C23C4C5C2C2C3C4C52I)=N1 (stereo unspecified) | > 100 µM
CN(C)c1ccc(/C=C2/SC(=S)NC2=O)cc1 | > 100 µM

Any idea what TGI was measured for `CC(C)(C)OC(=O)N(O)[C@@H]1C=C[C@H](n2cnc3c(N)ncnc32)C1` ? > 100 µM

`COC(=O)CCCN(C)c1n[nH]c(N)n1` , same question. > 100 µM

`O=c1c2cccc(Cl)c2sc2c(NCCCNCCO)nc3ccccc3c12` , same question. 3.02 µM

* * *

# Test system: SF-295 CNS
# assay-protocol: NCI tumour cell line growth inhibition, 48 h
recorded-metric: TGI (µM)
Output spec: scalar in µM, unitless text.

Solved cases (2 shown):
molecule | TGI [µM]
CC(C)(C)NC(C1=CC(C)(C)c2ccccc2C1=O)c1ccccc1 (stereo not given) | 17.8
Cc1cc(N2CCCCC2)nc(N(CCCNc2ccnc3cc(Cl)ccc23)Cc2ccco2)n1 | 3.59

Please find the next molecule below.
Any idea what TGI was measured for `Cc1ccc([N+](=O)[O-])c2c(NCCNC(=O)Cn3ccnc3[N+](=O)[O-])ccnc12` ? 43.3

* * *

# System: SK-MEL-5 melanoma
# assay-protocol: NCI tumour cell line growth inhibition, 48 h
Below, each entry is listed with its recorded TGI.

compound | TGI
O=C(/C=C(\O)c1ccc(Cl)cc1)C(=O)N=Nc1c(O)[nH]c2ccc(Br)cc12 | > 100 µM
CC(=O)C1C(=O)C(=O)N(c2cccc(C)c2C)C1=O (stereo not drawn) | > 100 µM

Any idea what TGI was measured for `C[n+]1c(/C=C\c2ccc(Cl)cc2)ccc2ccccc21` ? 18 µM

* * *

# Test system: UO-31 renal
# assay-protocol: NCI tumour cell line growth inhibition, 48 h
Below, each entry is listed with its recorded TGI.

Solved cases (4 shown):
compound | TGI
COc1c(Cl)c2c(c(OC)c1OC)-c1ccc(OC)c(=O)c(Cl)c1C(NC(C)=O)CC2 (stereo unspecified) | > 100 µM
COc1ccc(N(C)S(=O)(=O)c2ccccc2)cc1 | > 100 µM
Cc1nc(C)c(C(=O)NNC(=O)Cc2ccccc2)cc1C(=O)NNC(=O)Cc1ccccc1 | > 100 µM
COc1cc(N=CN(C)C)c2ncccc2c1 | > 100 µM

Lab note: need TGI with UO-31 renal for entry `CC(C)(C)NCc1cc(Nc2ccnc3cc(Cl)ccc23)cc(-c2ccc(Cl)cc2)c1O` , please look it up. 18.1 µM

`CCC(=O)Nc1ccc(N=Cc2cccc(Oc3ccccc3)c2)cc1` , same question. > 100 µM

`Cc1cc2c(cc1Cl)SC1=CC(=O)N(c3ccccc3)C1=NS2(=O)=O` , same question. > 100 µM

* * *

# System: NCI-H522 lung
# assay-protocol: NCI tumour cell line growth inhibition, 48 h
Where a SMILES comes first, the peptide text is derived from it. The star is where a group is joined. Boc = CC(C)(C)OC(=O)*
recorded-metric: TGI

Solved cases (3 shown):
compound | TGI
CCOC(=O)/C(=C\c1ccc(O)c(OC)c1)C(=O)c1ccccc1 | 21.9 µM
CC(NC(=O)C(NC(=O)OC(C)(C)C)C(C)C)C(=O)N1CCCC1C(=O)NCC(=O)NC(C(=O)NCC(=O)O)C(C)C (stereo not given) (Boc-VAPGVG-OH; configuration not given here) | > 100 µM
COc1ccc(-c2[nH]c3ccccc3c2C=C(C#N)C#N)cc1 | 10.3 µM

Any idea what TGI was measured for `C[n+]1c2ccccc2c(CNc2ccc(S(=O)(=O)N=C(N)N)cc2)c2ccccc21` ? 32.3 µM

`COc1ccccc1OCC(=O)Nc1sc2c(c1C(N)=O)CCC2` , same question. > 100 µM

* * *

Below, each entry is listed with its recorded TGI.
# Tested on: SF-268 CNS
# assay-protocol: NCI tumour cell line growth inhibition, 48 h

compound | TGI
C=CCCC(OCOCCOC)c1cc(C)c(O[Si](C)(C)C(C)(C)C)c(C)c1 (configuration not stated) | 34.1 µM
Cc1ccc(S(=O)(=O)N2CCN(S(=O)(=O)c3ccc(C)cc3)Cc3ccccc3C2)cc1 | > 100 µM
COc1ccc(N2C(=O)C3c4[nH]c5ccccc5c4C4CCCCCCCCCCC4C3C2=O)cc1 (configuration not stated) | > 30.5 µM

Any idea what TGI was measured for `O=C(O)CN1CCNCCN(CP(=O)(O)O)CC1` ? > 100 µM

O=C1/C(=C/C=C/c2ccccc2)N=C(c2ccccc2)N1C1Nc2cc3c(cc2S1)NC(N1C(=O)/C(=C/C=C/c2ccccc2)N=C1c1ccccc1)S3 (configuration not stated) , same question. > 100 µM

CC(C)(C)NC(C1=CC(C)(C)c2ccccc2C1=O)c1ccccc1 (configuration not stated) , same question. 2.74 µM

`CN(C)c1ccc(-c2cc(=O)c3cc4c(cc3[nH]2)OCO4)cc1` , same question. > 100 µM

COC(OC)C1OC(CO)C(n2cc(C)c(=O)[nH]c2=O)C1O (configuration not stated) , same question. > 100 µM

COc1ccc(NC(=O)CC(=O)N2N=C(N3CCCCC3)CC2c2ccccc2)cc1 (configuration not stated) , same question. > 100 µM

* * *

# Tested on: NCI-H226 lung
# assay-protocol: NCI tumour cell line growth inhibition, 48 h
Below, each entry is listed with its recorded TGI.

Solved cases (3 shown):
compound | TGI
C=CCc1cc(-c2cc(CC=C)c(O)c(CN(CCCl)CCCl)c2)cc(CN(CCCl)CCCl)c1O | 33.5 µM
CC1=NN(c2ccccc2)C(=O)C1=C1SCCS1 | > 100 µM
O=C1CCCCC/C1=C\c1ccc(F)cc1 | > 100 µM

Any idea what TGI was measured for COc1cccc(C2c3cc4c(cc3OC(C)(O)C2C)OCO4)c1O (stereo unspecified) ? 18.7 µM

`N#Cc1ccc(Oc2nc3ccccc3nc2-c2ccccc2)cc1` , same question. > 100 µM

C/C(=C\C(C)COCc1ccccc1)[C@H](COCc1ccccc1)OCc1ccccc1 (stereo partly specified) , same question. > 100 µM

`Cn1nccc1Nc1nccc(-c2cc3c(s2)C(C)(C)N(CCN2CCOCC2)C3=O)n1` , same question. > 100 µM

Cc1ccccc1C1CC(=O)CC(c2ccccc2C)C12C(=O)NC(=O)NC2=O (stereo unspecified) , same question. > 100 µM
